Please respond with reported zone of inhibition at 1000 µg/mL for every item in the list.
- Test system: Aspergillus flavus
- experimental_protocol: Antifungal activity against Aspergillus flavus at 1 mg/ml incubated for 3 days
- Format: functional
- condition_summary: 72 h, read-out: IZ

Lookup: Given `Cc1nn2c(-c3nc4cc(Cl)ccc4[nH]3)c(-c3ccc(Cl)cc3)nc2s1` , state its recorded zone of inhibition at 1000 µg/mL.
Found: 3 mm

Lookup: Any idea what zone of inhibition at 1000 µg/mL was measured for `Cc1nn2c(-c3nc4ccccc4[nH]3)c(-c3ccc(F)cc3)nc2s1` ?
Found: 3 mm

Lookup: Give its zone of inhibition at 1000 µg/mL value. Item: `Cc1ccc(-c2nn3c(-c4nc5ccccc5[nH]4)c(-c4ccc(F)cc4)nc3s2)cc1`
Found: 6 mm

Lookup: Query: zone of inhibition at 1000 µg/mL; subject: `Fc1ccc(-c2nc3sc(-c4ccc(Cl)cc4)nn3c2-c2nc3ccccc3[nH]2)cc1`
Found: 4 mm

Lookup: Entry `COc1ccc(-c2nc3sc(-c4ccc(F)cc4)nn3c2-c2nc3cc([N+](=O)[O-])ccc3[nH]2)cc1` has what zone of inhibition at 1000 µg/mL?
Found: 5 mm

Lookup: Sample `COc1ccc(-c2nc3sc(-c4ccc(F)cc4)nn3c2-c2nc3cc(Cl)ccc3[nH]2)cc1` — what was its zone of inhibition at 1000 µg/mL?
Found: 4 mm

Lookup: Reported zone of inhibition at 1000 µg/mL, compound `Cc1ccc(-c2nc3sc(C)nn3c2-c2nc3cc(Cl)ccc3[nH]2)cc1` : ____
Found: 3 mm

Lookup: State the recorded zone of inhibition at 1000 µg/mL for this entry: `Cc1nn2c(-c3nc4ccccc4[nH]3)c(-c3ccc(Cl)cc3)nc2s1`
Found: 6 mm

Lookup: Which zone of inhibition at 1000 µg/mL value belongs to `OC(Cn1cncn1)(Cn1cncn1)c1ccc(F)cc1F` ?
Found: 14 mm

Lookup: Would you mind telling me what zone of inhibition at 1000 µg/mL value was observed for `Cc1ccc(-c2nn3c(-c4nc5cc([N+](=O)[O-])ccc5[nH]4)c(-c4ccc(F)cc4)nc3s2)cc1` ?
Found: 5 mm

Lookup: Which value of zone of inhibition at 1000 µg/mL has been reported for `COc1ccc(-c2nc3sc(-c4ccccc4)nn3c2-c2nc3cc([N+](=O)[O-])ccc3[nH]2)cc1` in the records?
Found: 3 mm

Lookup: GET /values?readout=zone of inhibition at 1000 µg/mL&item= `Cc1ccc(-c2nc3sc(-c4ccc(Cl)cc4)nn3c2-c2nc3cc(Cl)ccc3[nH]2)cc1`
Found: 3 mm

Lookup: Recorded zone of inhibition at 1000 µg/mL of `COc1ccc(-c2nc3sc(-c4ccc(C)cc4)nn3c2-c2nc3cc(Cl)ccc3[nH]2)cc1` , please.
Found: 3 mm

Lookup: Item under review: `Cc1nn2c(-c3nc4cc(Cl)ccc4[nH]3)c(-c3ccc(F)cc3)nc2s1` . Reported zone of inhibition at 1000 µg/mL?
Found: 7 mm

Lookup: // query zone of inhibition at 1000 µg/mL value for entry `Cc1ccc(-c2nc3sc(-c4ccc(Cl)cc4)nn3c2-c2nc3ccccc3[nH]2)cc1`
Found: 5 mm

Lookup: Entry `Cc1ccc(-c2nn3c(-c4nc5cc(Cl)ccc5[nH]4)c(-c4ccc(Cl)cc4)nc3s2)cc1` : reported zone of inhibition at 1000 µg/mL = ?
Found: 5 mm

Lookup: Which zone of inhibition at 1000 µg/mL reading was recorded for the compound `COc1ccc(-c2nc3sc(C)nn3c2-c2nc3cc([N+](=O)[O-])ccc3[nH]2)cc1` ?
Found: 2 mm

---

- System: Chrysosporium keratinophilum
- experimental_protocol: Antifungal activity against Chrysosporium keratinophilum at 0.5 mg/ml incubated for 3 days
- Type: functional
- condition_summary: 72 h, read-out: IZ
measured_property: zone of inhibition at 500 µg/mL (mm)
State the answer as a number, implicitly in mm.

Lookup: Under Chrysosporium keratinophilum: zone of inhibition at 500 µg/mL value of `COc1ccc(-c2nc3sc(-c4ccccc4)nn3c2-c2nc3cc([N+](=O)[O-])ccc3[nH]2)cc1` ?
Found: 2

Lookup: Hi! What's the reported zone of inhibition at 500 µg/mL for `Cc1ccc(-c2nc3sc(-c4ccc(Cl)cc4)nn3c2-c2nc3cc(Cl)ccc3[nH]2)cc1` on Chrysosporium keratinophilum?
Found: 2

Lookup: # get_value(readout= zone of inhibition at 500 µg/mL, system= Chrysosporium keratinophilum) for `COc1ccc(-c2nc3sc(-c4ccc(C)cc4)nn3c2-c2nc3cc(Cl)ccc3[nH]2)cc1`
Found: 2

Lookup: Please tell me: zone of inhibition at 500 µg/mL of `Cc1ccc(-c2nn3c(-c4nc5ccccc5[nH]4)c(-c4ccc(F)cc4)nc3s2)cc1` , system Chrysosporium keratinophilum?
Found: 3

Lookup: Enter reported zone of inhibition at 500 µg/mL observed with Chrysosporium keratinophilum for `Cc1ccc(-c2nn3c(-c4nc5cc(Cl)ccc5[nH]4)c(-c4ccc(Cl)cc4)nc3s2)cc1`
Found: 1

Lookup: Give recorded zone of inhibition at 500 µg/mL with Chrysosporium keratinophilum for the following compound: `Cc1nn2c(-c3nc4ccccc4[nH]3)c(-c3ccc(Cl)cc3)nc2s1`
Found: 6

Lookup: Give the reported zone of inhibition at 500 µg/mL for `COc1ccc(-c2nc3sc(C)nn3c2-c2nc3cc([N+](=O)[O-])ccc3[nH]2)cc1` (system: Chrysosporium keratinophilum).
Found: 2

---

- Tested on: Salmonella typhi
- experimental_protocol: Antibacterial activity against Salmonella typhi at 0.5 mg/ml incubated for 18 hrs by well plate technique
- Type: functional, Salmonella enterica subsp. enterica serovar Typhi
- condition_summary: Salmonella enterica, read-out: DIZ
measured_property: zone of inhibition at 500 µg/mL (mm)
Expressed in mm, but write only the number.

Lookup: Given the entry `Cc1ccc(-c2nn3c(-c4nc5ccccc5[nH]4)c(-c4ccc(F)cc4)nc3s2)cc1` , report its measured zone of inhibition at 500 µg/mL.
Found: 13

Lookup: # zone of inhibition at 500 µg/mL lookup, item CN[C@@H]1[C@H](O[C@H]2[C@H](O[C@H]3[C@H](O)[C@@H](O)[C@H](N=C(N)N)[C@@H](O)[C@@H]3N=C(N)N)O[C@@H](C)[C@]2(O)C=O)O[C@@H](CO)[C@H](O)[C@H]1O [STREPTOMYCIN]
Found: 15.7

Lookup: So what's the measured zone of inhibition at 500 µg/mL for this one? `Cc1ccc(-c2nc3sc(C)nn3c2-c2nc3cc(Cl)ccc3[nH]2)cc1`
Found: 7

Lookup: What value of zone of inhibition at 500 µg/mL has been reported for the following compound? `Cc1ccc(-c2nn3c(-c4nc5ccccc5[nH]4)c(-c4ccc(Cl)cc4)nc3s2)cc1`
Found: 2

---

- System: Pseudomonas aeruginosa
- experimental_protocol: Antibacterial activity against Pseudomonas aeruginosa at 0.5 mg/ml incubated for 18 hrs by well plate technique
- Type: functional
- condition_summary: read-out: DIZ
measured_property: zone of inhibition at 500 µg/mL (mm)
Form entry: value (mm) — number only.

Lookup: I would be grateful if you could share the reported zone of inhibition at 500 µg/mL for `Cc1nn2c(-c3nc4cc([N+](=O)[O-])ccc4[nH]3)c(-c3ccc(Cl)cc3)nc2s1` .
Found: 5

Lookup: Can you share its zone of inhibition at 500 µg/mL? I mean this compound: `COc1ccc(-c2nc3sc(-c4ccc(F)cc4)nn3c2-c2nc3cc([N+](=O)[O-])ccc3[nH]2)cc1`
Found: 3

Lookup: What zone of inhibition at 500 µg/mL value was documented for this compound, `COc1ccc(-c2nc3sc(-c4ccccc4)nn3c2-c2nc3cc([N+](=O)[O-])ccc3[nH]2)cc1` ?
Found: 3

Lookup: GET /values?readout=zone of inhibition at 500 µg/mL&item= `Cc1ccc(-c2nc3sc(C)nn3c2-c2nc3ccccc3[nH]2)cc1`
Found: 2

Lookup: // lookup zone of inhibition at 500 µg/mL for `Cc1nn2c(-c3nc4cc([N+](=O)[O-])ccc4[nH]3)c(-c3ccc(F)cc3)nc2s1`
Found: 3

---

- Tested on: Salmonella typhi
- experimental_protocol: Antibacterial activity against Salmonella typhi at 0.5 mg/ml incubated for 18 hrs by well plate technique
- Assay type: functional, Salmonella enterica subsp. enterica serovar Typhi
- condition_summary: Salmonella enterica, read-out: DIZ
Please provide measured zone of inhibition at 500 µg/mL for the entries that follow.

Lookup: Look up zone of inhibition at 500 µg/mL for this molecule: `Cc1nn2c(-c3nc4cc(Cl)ccc4[nH]3)c(-c3ccc(Cl)cc3)nc2s1`
Found: 2 mm

Lookup: Quick check: zone of inhibition at 500 µg/mL of `Cc1ccc(-c2nn3c(-c4nc5cc([N+](=O)[O-])ccc5[nH]4)c(-c4ccc(F)cc4)nc3s2)cc1` ?
Found: 1 mm

Lookup: Param item = `COc1ccc(-c2nc3sc(-c4ccc(Cl)cc4)nn3c2-c2nc3ccccc3[nH]2)cc1` ; retrieve measured zone of inhibition at 500 µg/mL.
Found: 1 mm

Lookup: Using the record for `Cc1ccc(-c2nc3sc(-c4ccc(Cl)cc4)nn3c2-c2nc3ccccc3[nH]2)cc1` , report its zone of inhibition at 500 µg/mL.
Found: 3 mm

Lookup: Can you share its zone of inhibition at 500 µg/mL? I mean this molecule: `Cc1nn2c(-c3nc4ccccc4[nH]3)c(-c3ccc(Cl)cc3)nc2s1`
Found: 1 mm

Lookup: Query: zone of inhibition at 500 µg/mL; subject: `COc1ccc(-c2nc3sc(-c4ccccc4)nn3c2-c2nc3cc([N+](=O)[O-])ccc3[nH]2)cc1`
Found: 3 mm

Lookup: Requested field: zone of inhibition at 500 µg/mL. Item: `Cc1nn2c(-c3nc4cc([N+](=O)[O-])ccc4[nH]3)c(-c3ccc(Cl)cc3)nc2s1`
Found: 4 mm

Lookup: Need zone of inhibition at 500 µg/mL of `COc1ccc(-c2nc3sc(-c4ccc(F)cc4)nn3c2-c2nc3cc([N+](=O)[O-])ccc3[nH]2)cc1` , thanks.
Found: 3 mm

Lookup: Looking for the measured zone of inhibition at 500 µg/mL of `COc1ccc(-c2nc3sc(-c4ccc(C)cc4)nn3c2-c2nc3cc(Cl)ccc3[nH]2)cc1` , can you help?
Found: 1 mm

Lookup: Record request: zone of inhibition at 500 µg/mL value, item `Fc1ccc(-c2nc3sc(-c4ccc(Cl)cc4)nn3c2-c2nc3ccccc3[nH]2)cc1`
Found: 1 mm

Lookup: Recorded zone of inhibition at 500 µg/mL for `Cc1nn2c(-c3nc4cc(Cl)ccc4[nH]3)c(-c3ccc(F)cc3)nc2s1` , please?
Found: 7 mm

Lookup: Fill in the blank: the reported zone of inhibition at 500 µg/mL of `Cc1nn2c(-c3nc4cc([N+](=O)[O-])ccc4[nH]3)c(-c3ccc(F)cc3)nc2s1` is ____.
Found: 1 mm

Lookup: Data request, read-out zone of inhibition at 500 µg/mL, for `Cc1nn2c(-c3nc4ccccc4[nH]3)c(-c3ccc(F)cc3)nc2s1`
Found: 1 mm

Lookup: Would you kindly share the measured zone of inhibition at 500 µg/mL for `Cc1ccc(-c2nc3sc(-c4ccc(Cl)cc4)nn3c2-c2nc3cc(Cl)ccc3[nH]2)cc1` ?
Found: 2 mm

Lookup: Given `COc1ccc(-c2nc3sc(-c4ccc(F)cc4)nn3c2-c2nc3cc(Cl)ccc3[nH]2)cc1` , state its recorded zone of inhibition at 500 µg/mL.
Found: 0 mm
